Test system: Vcap cells (androgen receptor (+) prostate cancer cells)
test_name: CTG cell proliferation assay (CellTiter-Glo)
conditions_used: Table 5; tested compound 1.0 μM in combination with 1 μM ODM-201
Answer each item with its documented Survival rate of Vcap cells.
Answer shape: numeric part, then the unit.

compound=O=C1CC[C@H](N2Cc3c(OCc4ccc(CN5CCOCC5)cc4)cccc3C2=O)C(=O)N1 study_system="Vcap cells (androgen receptor (+) prostate cancer cells)" measure_name="Survival rate of Vcap cells" measured_result=40.1%
compound="Cc1nc2cccc(N)c2c(=O)n1C1CCC(=O)NC1=O (stereo not shown)" study_system="Vcap cells (androgen receptor (+) prostate cancer cells)" measure_name="Survival rate of Vcap cells" measured_result=40.4%
compound="Nc1cccc2c1C(=O)N(C1CCC(=O)NC1=O)C2=O (stereo not shown)" study_system="Vcap cells (androgen receptor (+) prostate cancer cells)" measure_name="Survival rate of Vcap cells" measured_result=40.9%

// recorded Survival rate of Vcap cells for Nc1cccc2c1CN(C1CCC(=O)NC1=O)C2=O (stereo not shown) : 41.4%

----------
Test system: Vcap cells (androgen receptor (+) prostate cancer cells)
test_name: CTG cell proliferation assay (CellTiter-Glo)
conditions_used: Table 10; tested compound 0.1 μM in combination with 1 μM B001
measure_name: Survival rate of Vcap cells (%)
Numbers only, in %.

Worked set:
compound="C[C@]12C=CC(=O)C=C1CC[C@@H]1[C@@H]2C(=O)C[C@@]2(C)[C@H]1CC[C@]2(O)C(=O)CO [Prednisone, reference compound]" measured_result=87.6
compound="CC(O)(CS(=O)(=O)c1ccc(F)cc1)C(=O)Nc1ccc(C#N)c(C(F)(F)F)c1 (centres unmarked) [bicalutamide, reference compound]" measured_result=77.1
compound="C[C@]12CC[C@H](O)CC1=CC[C@@H]1[C@@H]2CC[C@]2(C)C(c3cccnc3)=CC[C@@H]12 [Abiraterone, reference compound]" measured_result=78.9
compound="C[C@](O)(COc1ccc(C#N)cc1)C(=O)Nc1ccc(C#N)c(C(F)(F)F)c1 [MK-2866, reference compound]" measured_result=64.8

Lookup result for CC(=O)O[C@H]1CC[C@@]2(C)C(=CC[C@@H]3[C@@H]2CC[C@]2(C)C(c4cccnc4)=CC[C@@H]32)C1 [Abiraterone acetate, reference compound] ; measured Survival rate of Vcap cells: 79.8

----------
Test system: Vcap cells (androgen receptor (+) prostate cancer cells)
test_name: CTG cell proliferation assay (CellTiter-Glo)
conditions_used: Table 9; tested compound 1.0 μM in combination with 1 μM Enzalutamide
measure_name: Survival rate of Vcap cells (%)
Numbers only, in %.

compound="Nc1cccc2c1CN([C@H]1CCC(=O)NC1=O)C2=O [B002]" measure_name="Survival rate of Vcap cells" measured_result=44.7
compound="Nc1cccc2c1CN(C1CCC(=O)NC1=O)C2=O (stereo not drawn) [B001]" measure_name="Survival rate of Vcap cells" measured_result=42.3
compound="[2H][C@@]1(N2Cc3c(N)cccc3C2=O)CCC(=O)NC1=O [B006]" measure_name="Survival rate of Vcap cells" measured_result=50.5

Below are some compounds; for each one, tell me its Survival rate of Vcap cells.
1. Nc1cccc2c1CN([C@@H]1CCC(=O)NC1=O)C2=O [B003]
2. [2H][C@]1(N2Cc3c(N)cccc3C2=O)CCC(=O)NC1=O [B005]
3. [2H]C1(N2Cc3c(N)cccc3C2=O)CCC(=O)NC1=O (stereo not drawn) [B004]

Outgoing:
1. 45.4
2. 48.4
3. 50.8

----------
Tested on: Vcap cells (androgen receptor (+) prostate cancer cells)
test_name: CTG cell proliferation assay (CellTiter-Glo)
conditions_used: Table 9; tested compound 10 μM in combination with 1 μM Enzalutamide
I'd appreciate it if you could supply Survival rate of Vcap cells values for the items below.
Give bare numbers, in %.

Reference set, count: 2
molecule="[2H]C1(N2Cc3c(N)cccc3C2=O)CCC(=O)NC1=O (stereo not drawn) [B004]" study_system="Vcap cells (androgen receptor (+) prostate cancer cells)" measure_name="Survival rate of Vcap cells" units_text=% measured_result=51.1
molecule="[2H][C@]1(N2Cc3c(N)cccc3C2=O)CCC(=O)NC1=O [B005]" study_system="Vcap cells (androgen receptor (+) prostate cancer cells)" measure_name="Survival rate of Vcap cells" units_text=% measured_result=46.5

I'm hoping you can list Survival rate of Vcap cells for every molecule here, please.
1. Nc1cccc2c1CN([C@@H]1CCC(=O)NC1=O)C2=O [B003]
2. Nc1cccc2c1CN(C1CCC(=O)NC1=O)C2=O (stereo not drawn) [B001]
3. [2H][C@@]1(N2Cc3c(N)cccc3C2=O)CCC(=O)NC1=O [B006]

Outgoing:
1. 44.2
2. 38.4
3. 48.3

Input Nc1cccc2c1CN([C@H]1CCC(=O)NC1=O)C2=O [B002] . Output Survival rate of Vcap cells: 43.1

----------
System: Vcap cells (androgen receptor (+) prostate cancer cells)
test_name: CTG cell proliferation assay (CellTiter-Glo)
conditions_used: Table 4; tested compound alone, 1 μM
measure_name: Survival rate of Vcap cells (%)
One number for each entry, in %.

molecule="O=C1CCC(N2Cc3c(OCc4ccc(CN5CCOCC5)cc4)cccc3C2=O)C(=O)N1 (centres unmarked)" study_system="Vcap cells (androgen receptor (+) prostate cancer cells)" measured_result=77.2
molecule="Nc1cccc2c1CN(C1CCC(=O)NC1=O)C2=O (centres unmarked)" study_system="Vcap cells (androgen receptor (+) prostate cancer cells)" measured_result=82.8
molecule="Cc1nc2cccc(N)c2c(=O)n1C1CCC(=O)NC1=O (centres unmarked)" study_system="Vcap cells (androgen receptor (+) prostate cancer cells)" measured_result=65.8
molecule="C[C@]12CC[C@H](O)CC1=CC[C@@H]1[C@@H]2CC[C@]2(C)C(n3cnc4ccccc43)=CC[C@@H]12 [Galeterone, reference compound]" study_system="Vcap cells (androgen receptor (+) prostate cancer cells)" measured_result=62.8

Let us examine a further case.
Entry CC(=O)O[C@H]1CC[C@@]2(C)C(=CC[C@@H]3[C@@H]2CC[C@]2(C)C(c4cccnc4)=CC[C@@H]32)C1 [Abiraterone acetate, reference compound] : Survival rate of Vcap cells on Vcap cells (androgen receptor (+) prostate cancer cells) = 91.7

----------
System: Vcap cells (androgen receptor (+) prostate cancer cells)
test_name: CTG cell proliferation assay (CellTiter-Glo)
conditions_used: Homo sapiens, VCaP, 120 h, read-out: Survival rate of Vcap cells, Table 10; tested compound alone, 0.1 μM
measure_name: viability at 0.1 µM (%)
Give bare numbers, in %.

Please review the entries below; each comes with its answer.
molecule="C[C@](O)(COc1ccc(C#N)cc1)C(=O)Nc1ccc(C#N)c(C(F)(F)F)c1 [MK-2866, reference compound]" study_system="Vcap cells (androgen receptor (+) prostate cancer cells)" measure_name="viability at 0.1 µM" units_text=% measured_result=76.5
molecule="C[C@]12CC[C@H](O)CC1=CC[C@@H]1[C@@H]2CC[C@]2(C)C(c3cccnc3)=CC[C@@H]12 [Abiraterone, reference compound]" study_system="Vcap cells (androgen receptor (+) prostate cancer cells)" measure_name="viability at 0.1 µM" units_text=% measured_result=98.5
molecule="Cc1nc2cccc(N)c2c(=O)n1C1CCC(=O)NC1=O (stereo not shown)" study_system="Vcap cells (androgen receptor (+) prostate cancer cells)" measure_name="viability at 0.1 µM" units_text=% measured_result=91.2
molecule="Nc1cccc2c1CN(C1CCC(=O)NC1=O)C2=O (stereo not shown)" study_system="Vcap cells (androgen receptor (+) prostate cancer cells)" measure_name="viability at 0.1 µM" units_text=% measured_result=83.9
molecule="CC(=O)O[C@H]1CC[C@@]2(C)C(=CC[C@@H]3[C@@H]2CC[C@]2(C)C(c4cccnc4)=CC[C@@H]32)C1 [Abiraterone acetate, reference compound]" study_system="Vcap cells (androgen receptor (+) prostate cancer cells)" measure_name="viability at 0.1 µM" units_text=% measured_result=96.1
molecule="C[C@]12C=CC(=O)C=C1CC[C@@H]1[C@@H]2C(=O)C[C@@]2(C)[C@H]1CC[C@]2(O)C(=O)CO [Prednisone, reference compound]" study_system="Vcap cells (androgen receptor (+) prostate cancer cells)" measure_name="viability at 0.1 µM" units_text=% measured_result=99.1

Now examine the next entry.
molecule CC(O)(CS(=O)(=O)c1ccc(F)cc1)C(=O)Nc1ccc(C#N)c(C(F)(F)F)c1 (stereo not shown) [bicalutamide, reference compound] , viability at 0.1 µM observed: 99.2

----------
Give measured Survival rate of Vcap cells for each item. Keep answers brief.
Tested on: Vcap cells (androgen receptor (+) prostate cancer cells)
test_name: CTG cell proliferation assay (CellTiter-Glo)
conditions_used: Table 9; tested compound 1.0 μM in combination with 1 μM ARN-509
Numbers only, in %.

Reference set, count: 3
compound=Nc1cccc2c1CN([C@@H]1CCC(=O)NC1=O)C2=O measured_result=46.5
compound=Nc1cccc2c1CN([C@H]1CCC(=O)NC1=O)C2=O measured_result=44.7
compound=[2H][C@]1(N2Cc3c(N)cccc3C2=O)CCC(=O)NC1=O measured_result=47.6

Could I get Survival rate of Vcap cells for every one of these entries?
1. [2H][C@@]1(N2Cc3c(N)cccc3C2=O)CCC(=O)NC1=O
2. Nc1cccc2c1CN(C1CCC(=O)NC1=O)C2=O (stereo not drawn)

Outgoing:
1. 51.7
2. 42.6

Survival rate of Vcap cells reading for [2H]C1(N2Cc3c(N)cccc3C2=O)CCC(=O)NC1=O (stereo not drawn) : 51.2
